Ref: PubChem BioAssay (NCI)

Test system: SK-OV-3 ovarian
experiment: NCI-60 one-dose screen, 48 h (100 = growth as untreated, 0 = no growth, -100 = all killed)
particulars: 10 µM unless noted
The panel holds about 83,000 compounds, 20% with a hit somewhere; the sample as a whole holds those more often.
result-type: growth (%)
Give the number; % is assumed, so skip it.

(Q) Tell me growth reported for CC(C)CCC1(CCO)C(=O)NC(=S)NC1=O
(A) 108

(Q) Tell me growth reported for COc1ccc(C(=O)c2ccc([As]=O)cc2)cc1 (stereo unspecified)
(A) -99.8

(Q) Tell me growth reported for CN(C)P1(N(C)C)=NP(N(C)C)(N(C)C)=NP(N(C)C)(N(C)C)=N1
(A) 106

(Q) Tell me growth reported for COc1ccc(CN2CCN(Cc3ccccc3)CC2)c(O)c1
(A) 95.7

(Q) Tell me growth reported for COc1ccc(/C=C(/C(=O)N2CCCC2)c2cc(OC)c(OC)c(OC)c2)cc1N
(A) 28.7

// next item, growth requested
(Q) Tell me growth reported for C[CH2][Pb]([CH2]C)([CH2]C)[O]C(=O)COC
(A) -3.94

====

Test system: HL-60(TB) leukemia
experiment: NCI-60 one-dose screen, 48 h
particulars: 10 µM unless noted
Compounds without any hit were thinned out: in the full panel of roughly 83,000, 20% have a hit. The source made the active and inactive calls. Rule for the calls: active = growth percent below 10; inactive = the rest.
Answer with one of the outcomes active, inactive

Reference set (3 entries):
(Q) Short answer needed: outcome of this test for COc1ccc2c(c1)OC13Oc4cc(OC)ccc4C=C1CCCCC3=C2 ?
(A) inactive

(Q) Short answer needed: outcome of this test for COc1ccc(-c2c(C)nn3c(NCCN4CCOCC4)cc(C)nc23)cc1OC ?
(A) inactive

(Q) Short answer needed: outcome of this test for Cn1ncc2ccc(-c3nc(-c4ccccc4)[nH]c3-c3n[nH]c(=O)n3C3CC3)cc21 ?
(A) inactive

Further cases:
(Q) Short answer needed: outcome of this test for Cc1ccc2cnc(N)c(C#Cc3cc(C(=O)Nc4ccc(CN5CCN(C)CC5)c(C(F)(F)F)c4)cnc3C)c2c1 ?
(A) inactive

(Q) Short answer needed: outcome of this test for COc1ccc(/C=C/C(=O)c2cc3c(N)c(C(=O)Nc4cccc5ccccc45)sc3nc2C)cc1 ?
(A) inactive

====

Tested on: MOLT-4 leukemia
experiment: NCI-60 one-dose screen, 48 h
particulars: 10 µM
Method: Growth inhibition of the MOLT-4 human tumor cell line is measured as a screen for anti-cancer activity. Cells are grown in 96 well plates and exposed to the test compound for 48 hours. Compounds are tested at a single concentration, which is 10^-5 M for most compounds. The reported endpoint is percent growth (GI% or GIPRCNT), where numbers from 0 - 100% represent growth inhibition, and numbers from -100% - 0 represent cell death. For example, a value of 40 represents 60% growth inhibition. […]
Compounds without any hit were thinned out: in the full panel of roughly 83,000, 20% have a hit. Active and inactive are the calls of the source. The calls were made as follows: active = growth percent below 10; inactive = the rest.
Answer with one of the outcomes Y for active, N for inactive

(Q) Short answer needed: outcome of this test for O=c1cc[nH]c(=O)o1 ?
(A) N

Further cases:
(Q) Short answer needed: outcome of this test for CC1(C)N=C(N)N=C(N)N1c1ccc(OCCCCOc2ccc(S(=O)(=O)F)cc2)c(Cl)c1 ?
(A) N

====

Test system: T-47D breast
experiment: NCI-60 one-dose screen, 48 h (100 = growth as untreated, 0 = no growth, -100 = all killed)
particulars: 10 µM unless noted
The panel holds about 83,000 compounds, 20% with a hit somewhere; the sample as a whole holds those more often.
result-type: growth (%)
Give the number; % is assumed, so skip it.

Observe how each entry below is paired with its result.
(Q) Tell me growth reported for O=C(CCc1ccco1)NC1CCN(CC2(c3ccc(Cl)cc3)CCC2)CC1
(A) 15.4

(Q) Tell me growth reported for CC(=O)OC1CCC2(C)C(=CCC3C4CC(CN5CC5)C(=O)C4(C)CCC32)C1 (centres undefined)
(A) -11.8

(Q) Tell me growth reported for COc1ccc(C2=NN(c3ccccc3)C(c3sc(N(CCCl)CCCl)nc3Cl)C2)cc1 (centres undefined)
(A) 69.5

(Q) Tell me growth reported for CCCCCCCCCCOc1ccc(C(=O)Oc2ccc(CSP3(=O)OCC4OC(n5ccc(=O)[nH]c5=O)C(F)C4OP(=O)(O)OCC4OC(n5cnc6c(N)ncnc65)C(F)C4O3)cc2)cc1 (centres undefined)
(A) 96.4

(Q) Tell me growth reported for COc1cc(C2CC(=O)Nc3nc(N)[se]c32)cc(OC)c1OC (centres undefined)
(A) 74.5

(Q) Tell me growth reported for CC(C)Nc1ccc(Nc2ccccc2)cc1
(A) 42.9

(Q) Tell me growth reported for CC1(C)N=C(N)N=C(N)N1c1ccc(OCCCCOc2ccc(S(=O)(=O)F)cc2)c(Cl)c1
(A) 25.9

(Q) Tell me growth reported for NCCc1cc(O)c(O)cc1O
(A) 100

// next item, growth requested
(Q) Tell me growth reported for CC(=O)O[C@H]1CCC2(C)C(=CCC3C2CCC2(C)/C(=N/OC(=O)c4ccc(N(CCCl)CCCl)cc4)CCC32)C1 (some centres undefined)
(A) 17.7

====

Tested on: A498 renal
experiment: NCI-60 one-dose screen, 48 h (100 = growth as untreated, 0 = no growth, -100 = all killed)
particulars: 10 µM unless noted
About 83,000 compounds went through this panel and 20% of them were active in at least one assay; those are over-represented in the sample as a whole.
result-type: growth (%)
Give the number; % is assumed, so skip it.

Observe how each entry below is paired with its result.
(Q) Tell me growth reported for CCC1([N+](=O)[O-])COP(=O)(NCc2cccnc2)OC1 (stereo unspecified)
(A) 94.3

(Q) Tell me growth reported for CC(C)Nc1ccc(Nc2ccccc2)cc1
(A) 65.9

(Q) Tell me growth reported for NC(=O)C(Br)CBr (stereo unspecified)
(A) 103

(Q) Tell me growth reported for C[C@]12CC[C@@H]3C4=C(CC[C@H]3[C@@H]1CC[C@@H]2O)CC(=O)CC4
(A) 90.6

(Q) Tell me growth reported for CNC(=O)Oc1cc(C(C)C)ccc1Sc1ccc(C(C)C)cc1OC(=O)NC
(A) 88.5

Further cases:
(Q) Tell me growth reported for CNC(=O)Oc1cccc(N(C)C)c1
(A) 104

(Q) Tell me growth reported for OC1CCCCC1N1CCC(c2ccccc2)CC1 (stereo unspecified)
(A) 89.4

(Q) Tell me growth reported for C[C@]12CC[C@H]3[C@@H](C[C@@H]4N=C(c5ccc(O)cc5)S[C@@]45C[C@H](O)CC[C@]35C)[C@@H]1CC[C@@H]2O
(A) 49.4

(Q) Tell me growth reported for CCOC(=O)Nc1cc(Cl)c([N+](=O)[O-])c(NC(=O)OCC)n1
(A) 93.1

(Q) Tell me growth reported for C/C(=C\C(=O)O[C@H]1[C@@H]2[C@H](C)CC[C@H]2[C@]2(C)O[C@@]1(C1CCCCC1)C[C@H]2OC(=O)CO)c1ccccc1
(A) -83

(Q) Tell me growth reported for CCOP(=O)(OCC)Oc1ccc(Sc2ccc(OP(=O)(OCC)OCC)cc2)cc1
(A) 85.2

====

System: HL-60(TB) leukemia
experiment: NCI-60 one-dose screen, 48 h (100 = growth as untreated, 0 = no growth, -100 = all killed)
particulars: 10 µM unless noted
The panel holds about 83,000 compounds, 20% with a hit somewhere; the sample as a whole holds those more often.
result-type: growth (%)
Give the number; % is assumed, so skip it.

(Q) Tell me growth reported for COc1cc(CSc2nc3ccc(C)cc3c(=O)n2-c2ccccc2)cc(OC)c1OC
(A) 12.2

Further cases:
(Q) Tell me growth reported for O=C(Nc1ccc(Oc2ccc(F)cc2)c(Cl)c1)c1cccnn1
(A) 56.3

(Q) Tell me growth reported for CC(COC(=O)c1ccccc1)N1CC2CCC(C1)O2 (stereo not given)
(A) 101

(Q) Tell me growth reported for CC1OC(OC2C(OC3CCC4(C)C(CCC5(C)C4CC=C4C6CC(C)(C)CCC6(CO)C(O)CC45C)C3(C)C)OC(C(=O)O)C(OC3OC(COC4OC(CO)C(O)C(O)C4O)C(O)C(O)C3O)C2O)C(O)C(O)C1O (stereo not given)
(A) -73

(Q) Tell me growth reported for CCCC(=O)Oc1ccc(CC)cc1
(A) 97.6

(Q) Tell me growth reported for Cn1cc(-c2nc(-c3cn(C)c4ncccc34)cs2)c2ccccc21
(A) 28.4

(Q) Tell me growth reported for C#Cc1nc(Nc2cc(C)[nH]n2)c2ccccc2n1
(A) -38.8

(Q) Tell me growth reported for COc1ccc(-c2nnc(COc3ccc(NS(=O)(=O)c4ccc(OC)cc4)cc3F)o2)cc1
(A) 76.6

====

Tested on: NCI-H226 lung
experiment: NCI-60 one-dose screen, 48 h (100 = growth as untreated, 0 = no growth, -100 = all killed)
particulars: 10 µM unless noted
Method: Growth inhibition of the NCI-H226 human Non-Small Cell Lung tumor cell line is measured as a screen for anti-cancer activity. Cells are grown in 96 well plates and exposed to the test compound for 48 hours. Compounds are tested at a single concentration, which is 10^-5 M for most compounds. The reported endpoint is percent growth (GI% or GIPRCNT), where numbers from 0 - 100% represent growth inhibition, and numbers from -100% - 0 represent cell death. […]
This is part of a sample that, as a whole, favours compounds with a hit. Of some 83,000 tested, about 20% had one in any assay.
result-type: growth (%)
Give the number; % is assumed, so skip it.

Observe how each entry below is paired with its result.
(Q) Under NCI-H226 lung: report growth of CC1(C)N=C(N)N=C(N)N1c1ccc(OCCCCNC(=O)Nc2cccc(S(=O)(=O)F)c2)c(Cl)c1 .
(A) 69.4

(Q) Under NCI-H226 lung: report growth of COc1ccc(/C=C\c2cc(OC)c(OC)c(OC)c2)cc1N/C=C\C(=O)c1c[nH]c2ccccc12 .
(A) -0.606

(Q) Under NCI-H226 lung: report growth of CC(/C=N/N=C(N)N)=N\N=C(N)N .
(A) 95.8

(Q) Under NCI-H226 lung: report growth of N#[N+]c1nc2nc(N)[nH]c(=O)c2[nH]1 .
(A) 98

(Q) Under NCI-H226 lung: report growth of Cc1cc(CCl)c(C)cc1CCl .
(A) 83.3

(Q) Under NCI-H226 lung: report growth of S=P(N1CCCCCC1)(N1CC1)N1CC1 .
(A) 106

Further cases:
(Q) Under NCI-H226 lung: report growth of CC(C)N=C(NC(C)C)N1CC1 .
(A) 108

(Q) Under NCI-H226 lung: report growth of O=C1NC(=O)C(CN2C(=O)C3(c4ccccc42)[C@H](Cl)C(=O)N3c2ccccc2)C(=O)N1 (stereo partly specified) .
(A) 76.4
